Record: compiled Ki on Plasminogen (Homo sapiens, UniProt P00747) from multiple reports.
Ki strictly under 30 µM means condition met; at 30 µM or over means condition not met.

N=C(N)c1ccc(CNC(=O)CNC(=O)[C@@H](CO)NS(=O)(=O)Cc2cccc(C(=O)O)c2)cc1.O=C(O)C(F)(F)F = condition not met

Q: Identify whether the molecule `N=C(N)c1ccc(CNC(=O)CNC(=O)[C@@H](CO)NS(=O)(=O)Cc2ccc(F)cc2)cc1` records Ki below 30 µM.
Ans: condition met

Q: Moving on to `N#Cc1ccc(CS(=O)(=O)N[C@H](CO)C(=O)NCC(=O)NCc2ccc(C(=N)N)cc2)cc1`
Ans: condition met

Q: Please answer likewise for `N=C(N)c1ccc(CNC(=O)CNC(=O)[C@@H](CO)NS(=O)(=O)Cc2ccc(Cl)c(Cl)c2)cc1`
Ans: condition not met

Q: Entry COC(=O)C(Cc1cccc(C(=N)N)c1)NS(=O)(=O)c1ccc2ccccc2c1 (racemic) please
Ans: condition met

Q: Next molecule up: `N=C(N)c1ccc(CNC(=O)c2cnn(Cc3ccccc3)c2)cc1`
Ans: condition met
